- SYSTEM NAME: T1, human IL-18 binding protein (IL-18BP) (human, UniProt O95998 31-194)
- T1 construct: also called hu IL-18BP; hIL18BP
- T1 sequence (looked up): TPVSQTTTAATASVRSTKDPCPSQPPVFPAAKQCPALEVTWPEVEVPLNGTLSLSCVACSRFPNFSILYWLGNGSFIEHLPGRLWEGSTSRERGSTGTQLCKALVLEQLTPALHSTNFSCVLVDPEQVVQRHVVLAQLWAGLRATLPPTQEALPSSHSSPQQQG
- ASSAY COMMENT: Octet BLI
Assignment: determine reported Kd for the given binders.
Your answer should be a number followed by the unit of measure.

For the binder IL-18 variant G3V, M60K, D157E (ligand) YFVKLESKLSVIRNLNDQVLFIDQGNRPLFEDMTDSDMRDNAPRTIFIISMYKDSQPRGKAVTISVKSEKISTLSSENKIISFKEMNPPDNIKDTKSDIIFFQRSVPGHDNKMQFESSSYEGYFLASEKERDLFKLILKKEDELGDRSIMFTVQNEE , what Kd is on record?
87 nM

State the recorded Kd for this entry: IL-18 variant G3V, M60K (ligand) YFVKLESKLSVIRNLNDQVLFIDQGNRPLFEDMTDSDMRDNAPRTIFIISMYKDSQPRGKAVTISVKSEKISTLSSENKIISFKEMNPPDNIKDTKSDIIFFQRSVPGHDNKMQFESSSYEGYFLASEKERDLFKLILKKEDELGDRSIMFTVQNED
91 nM

For the binder shown here, IL-18 variant G3T, M60K, D157E (ligand) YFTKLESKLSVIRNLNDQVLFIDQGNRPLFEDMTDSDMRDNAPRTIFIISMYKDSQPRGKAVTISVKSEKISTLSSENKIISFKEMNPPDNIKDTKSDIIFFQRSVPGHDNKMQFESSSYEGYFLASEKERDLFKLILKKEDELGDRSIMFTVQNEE , give the reported Kd.
686 nM

Origin of measurements: patent US20240182536A1
